Below are Ki values recorded for Adenosine receptor A3 (Homo sapiens).
Give the value in nM but do not write nM after it.

Entry `CCCn1c(=O)c2c(nc3cc(OC)ccn32)n(CCCCNC(=O)c2cccc(S(=O)(=O)F)c2)c1=O` , system Adenosine receptor A3 (Homo sapiens): what Ki was measured?
158

Repeat with `CCCn1c(=O)c2c(nc3cc(OC)ccn32)n(CCCCOC(=O)c2ccc(S(=O)(=O)F)cc2)c1=O`
32

And what about the compound `CCCn1c(=O)c2c(nc3cc(OC)ccn32)n(CCCOC(=O)c2ccc(S(=O)(=O)F)cc2)c1=O` ?
20

Consider next the compound `CCCn1c(=O)c2c(nc3cc(OC)ccn32)n(CCOC(=O)c2cccc(S(=O)(=O)F)c2)c1=O` in the same way.
398

Would you kindly repeat that for `CCCn1c(=O)c2c(nc3cc(OC)ccn32)n(CCOC(=O)c2ccc(S(=O)(=O)F)cc2)c1=O` ?
200

And `CCCn1c(=O)c2c(nc3cc(OC)ccn32)n(CCCOC(=O)c2cccc(S(=O)(=O)F)c2)c1=O` ?
100

And for `CCCn1c(=O)c2c(nc3cc(OC)ccn32)n(CCCCOC(=O)c2cccc(S(=O)(=O)F)c2)c1=O` ?
79

What about `CCCn1c(=O)c2c(nc3cc(OC)ccn32)n(CCCNC(=O)c2cccc(S(=O)(=O)F)c2)c1=O` ?
32

Item: `CCCn1c(=O)c2c(nc3cc(OC)ccn32)n(CCCCNC(=O)c2ccc(S(=O)(=O)F)cc2)c1=O`
32
